- studySystem: UniProt P20292
- Sequence (P20292 whole entry): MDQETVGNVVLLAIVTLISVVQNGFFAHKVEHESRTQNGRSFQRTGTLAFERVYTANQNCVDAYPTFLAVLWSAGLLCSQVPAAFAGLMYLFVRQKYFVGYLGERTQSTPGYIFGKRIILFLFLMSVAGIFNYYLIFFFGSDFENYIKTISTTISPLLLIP
- method: Scintillation Proximity Assay: Compounds are assessed for the ability to bind to FLAP in a binding assay that measures compound-specific displacement of an iodinated (125I) FLAP inhibitor via a Scintillation Proximity Assay format (adapted from S. Charleson et al., Mol. Pharmacol., 1992, 41, 873-879).Cell pellets produced from sf9 insect cells expressing recombinant human FLAP protein are resuspended in buffer A [15 mM Tris-HCl (pH 7.5), 2 mM MgCl2, 0.3 mM EDTA, 1 mM PMSF]. The cells are lysed with a Dounce homogenizer and the material is centrifuged at 10,000xg for 10 minutes. The supernatant is then collected and centrifuged at 100,000xg for 60 minutes. To prepare membrane protein for an assay, an aliquot of the 100,000xg pellet is resuspended in 1 ml of buffer A, Dounce homogenized, and finally subjected to polytron mixing (30 seconds). Membrane protein (25 ul, 5 ug) is mixed with WGA SPA beads (Amersham) and stirred for 1 h. To an assay plate (Perkin Elmer FlexiPlate) is added 25 ul of test compound.
parameterMeasured: pIC50
In simple prose, pIC50 is minus the logarithm base ten of a concentration in moles per litre.

Given the molecule CC(C)(C)n1c(-c2ccccc2C(N)=O)nc2cc(-c3cnc(N)nc3)ccc21 , what is its reported pIC50? 7.45
